target: ACVR2B (human) (UniProt Q13705); experiment: KINOMEscan competition binding; settings: compound 10.0 µM
Sequence (Q13705 whole entry, looked up): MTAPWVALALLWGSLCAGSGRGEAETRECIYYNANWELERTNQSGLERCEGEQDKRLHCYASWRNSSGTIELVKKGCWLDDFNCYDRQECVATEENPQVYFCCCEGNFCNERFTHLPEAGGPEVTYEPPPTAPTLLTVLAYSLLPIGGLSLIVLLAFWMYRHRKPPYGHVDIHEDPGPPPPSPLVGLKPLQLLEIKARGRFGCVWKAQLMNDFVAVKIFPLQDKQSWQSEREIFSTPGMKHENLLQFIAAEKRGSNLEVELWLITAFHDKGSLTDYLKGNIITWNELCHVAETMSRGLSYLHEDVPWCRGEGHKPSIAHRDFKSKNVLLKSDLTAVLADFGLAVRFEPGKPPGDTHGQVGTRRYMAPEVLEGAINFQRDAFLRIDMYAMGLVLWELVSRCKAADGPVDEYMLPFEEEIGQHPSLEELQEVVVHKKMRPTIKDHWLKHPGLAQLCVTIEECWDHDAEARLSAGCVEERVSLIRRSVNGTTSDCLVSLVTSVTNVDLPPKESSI
Binning scheme for kinase still bound, per cent of control: L (below 20%), M (20% to below 30%), H (30% or more)

{"Smiles": "COc1cc(N2CCN(C)CC2)ccc1Nc1ncc2c(n1)N(C)c1sccc1C(=O)N2C", "Subject of test": "ACVR2B (human) (UniProt Q13705)", "Label class": "H"}

Query string: Looking at CS(=O)(=O)Nc1ccc(-c2cncc(/C=C3\SC(=N)NC3=O)c2)cc1 , which class would you pick?
Result string: L

Query string: Looking at CN1CCN(c2ccc(C(=O)Nc3ncc4c(n3)N(C)c3ccccc3C(=O)N4C)cc2)CC1 , which class would you pick?
Result string: H

Query string: Looking at CN1C(=O)c2ccccc2N(C)c2nc(Nc3ccc(N4CCC(O)CC4)cc3)ncc21 , which class would you pick?
Result string: H

Query string: Looking at O=C1NC(=O)/C(=C/c2ccc(-c3ccc(F)cc3O)o2)S1 , which class would you pick?
Result string: L

Query string: Looking at O=C1NC(=S)S/C1=C\c1ccc(-c2cncc3ccccc23)o1 , which class would you pick?
Result string: M

---

molecular target: STK17B (human); test: KINOMEscan competition binding; conditions: compound 10.0 µM
Can you tell me kinase still bound, per cent of control for the items I'm about to list?
Answers are plain numbers, in %.

Consider the reported kinase still bound, per cent of control for these compounds:
{"Smiles": "CS(=O)(=O)Nc1ccc(-c2cc(/C=C3\\SC(=N)NC3=O)c[nH]c2=O)cc1", "kinase still bound, per cent of control (%)": 31}
{"Smiles": "O=C1NC(=O)/C(=C/c2c[nH]c(=O)c(-c3ccc(N4CCNCC4)nc3)c2)S1", "kinase still bound, per cent of control (%)": 0.15}
{"Smiles": "N=C1NC(=O)/C(=C/c2ccc(-c3ccc4c(C(=O)Nc5ccc(N6CCNCC6)cc5)cccc4c3)o2)S1", "kinase still bound, per cent of control (%)": 0.4}

For each of the items listed, what is its kinase still bound, per cent of control?
1. CS(=O)(=O)Nc1ccc(-c2ccc(/C=C3\SC(=N)NC3=O)o2)c(O)c1
2. CCN1CCN(Cc2cc(NC(=O)c3cccc4cc(-c5ccc(/C=C6\SC(=O)NC6=O)o5)ccc34)cc(C(F)(F)F)c2)CC1

Result string:
1. 7.7
2. 0.3

For each of the items listed, what is its kinase still bound, per cent of control?
1. N=C1NC(=O)/C(=C/c2ccc(-c3ccc(C(N)=O)cc3O)o2)S1
2. N=C1NC(=O)/C(=C/c2ccc(-c3ccc(S(N)(=O)=O)cc3)o2)S1
3. N=C1NC(=O)/C(=C/c2ccc(-c3ccc(F)cc3)o2)S1
4. N=C1NC(=O)/C(=C/c2ccc(-c3cncc4ccccc34)o2)S1
5. O=C1NC(=O)/C(=C/c2ccc(-c3ccc4c(C(=O)Nc5cccc(C(F)(F)F)c5)cccc4c3)o2)S1
6. O=C1NC(=O)/C(=C/c2ccc(-c3ccc(F)cc3O)o2)S1
7. N=C1NC(=O)/C(=C/c2ccc(-c3ccc(F)cc3O)o2)S1
8. O=C1NC(=O)/C(=C/c2cc(-c3ccc(N4CCNCC4)nc3)c[nH]c2=O)S1

Result string:
1. 1.5
2. 6
3. 2.2
4. 0.2
5. 7.4
6. 3.3
7. 2.9
8. 18

For each of the items listed, what is its kinase still bound, per cent of control?
1. N=C1NC(=O)/C(=C/c2ccc(-c3cnc4ccccc4c3)o2)S1
2. CN1C(=N)NC(=O)/C1=C/c1ccc(-c2cccc3ccccc23)o1
3. CC(=O)Nc1ccc(-c2ccc(/C=C3\SC(=N)NC3=O)o2)c(O)c1
4. CN1CCN(c2ccc(C(=O)Nc3ncc4c(n3)N(C)c3ccccc3C(=O)N4C)cc2)CC1
5. N=C1NC(=O)/C(=C/c2c[nH]c(=O)c(-c3ccc(N4CCNCC4)nc3)c2)S1
6. N=C1NC(=O)/C(=C/c2ccc(-c3ccc(Cl)cc3)o2)S1
7. NS(=O)(=O)c1ccc(-c2ccc(/C=C3\SC(=O)NC3=O)o2)cc1
8. Cc1cn(-c2cc(NC(=O)c3cccc4cc(-c5ccc(/C=C6\SC(=N)NC6=O)o5)ccc34)cc(C(F)(F)F)c2)cn1

Result string:
1. 2.3
2. 32
3. 3
4. 100
5. 1.7
6. 2.1
7. 9
8. 0.6

Query string: Provide only the value of recorded kinase still bound, per cent of control for O=C1NC(=S)S/C1=C\c1ccc(-c2cncc3ccccc23)o1
Result string: 0.25

---

molecular target: GSK3A (human) (UniProt P49840); assay: KINOMEscan competition binding; details: compound 10.0 µM
Sequence (P49840 whole entry, looked up): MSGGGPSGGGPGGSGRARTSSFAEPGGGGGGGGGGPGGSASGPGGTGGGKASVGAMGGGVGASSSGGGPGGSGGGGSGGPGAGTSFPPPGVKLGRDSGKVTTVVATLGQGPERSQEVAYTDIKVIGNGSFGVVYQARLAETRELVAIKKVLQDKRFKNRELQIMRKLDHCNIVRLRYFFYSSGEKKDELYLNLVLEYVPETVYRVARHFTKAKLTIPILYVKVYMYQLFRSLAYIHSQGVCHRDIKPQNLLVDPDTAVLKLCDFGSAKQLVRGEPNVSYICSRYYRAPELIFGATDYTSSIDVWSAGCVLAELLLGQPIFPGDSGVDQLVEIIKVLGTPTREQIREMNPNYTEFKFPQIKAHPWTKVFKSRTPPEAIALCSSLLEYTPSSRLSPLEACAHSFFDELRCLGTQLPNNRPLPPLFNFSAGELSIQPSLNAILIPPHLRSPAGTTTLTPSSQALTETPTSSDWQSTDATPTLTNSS
Recorded metric: kinase still bound, per cent of control (%)
Numbers only, in %.

For each of the items listed, what is its kinase still bound, per cent of control?
1. CN1C(=O)c2ccccc2N(C)c2nc(Nc3ccc(N4CCC(O)CC4)cc3)ncc21
2. COc1cc(N2CCN(C)CC2)ccc1Nc1ncc2c(n1)N(C)c1ccccc1N(C)C2=O
3. N=C1NC(=O)/C(=C/c2ccc(-c3ccc4c(C(=O)Nc5ccc(N6CCNCC6)cc5)cccc4c3)o2)S1
4. N=C1NC(=O)/C(=C/c2ccc(-c3ccc(C(N)=O)cc3O)o2)S1
5. N=C1NC(=O)/C(=C/c2ccc(-c3cncc4ccccc34)o2)S1
6. N=C1NC(=O)/C(=C/c2ccc(-c3cccc4cc[nH]c34)o2)S1
7. COc1cc(N2CCN(C)CC2)ccc1Nc1ncc2c(n1)Nc1ccccc1NC2=O

Result string:
[100, 100, 18, 17, 14, 20, 100]

---

molecular target: STK33 (human) (UniProt Q9BYT3); test: KINOMEscan competition binding; conditions: compound 10.0 µM
Sequence (Q9BYT3 whole entry, looked up): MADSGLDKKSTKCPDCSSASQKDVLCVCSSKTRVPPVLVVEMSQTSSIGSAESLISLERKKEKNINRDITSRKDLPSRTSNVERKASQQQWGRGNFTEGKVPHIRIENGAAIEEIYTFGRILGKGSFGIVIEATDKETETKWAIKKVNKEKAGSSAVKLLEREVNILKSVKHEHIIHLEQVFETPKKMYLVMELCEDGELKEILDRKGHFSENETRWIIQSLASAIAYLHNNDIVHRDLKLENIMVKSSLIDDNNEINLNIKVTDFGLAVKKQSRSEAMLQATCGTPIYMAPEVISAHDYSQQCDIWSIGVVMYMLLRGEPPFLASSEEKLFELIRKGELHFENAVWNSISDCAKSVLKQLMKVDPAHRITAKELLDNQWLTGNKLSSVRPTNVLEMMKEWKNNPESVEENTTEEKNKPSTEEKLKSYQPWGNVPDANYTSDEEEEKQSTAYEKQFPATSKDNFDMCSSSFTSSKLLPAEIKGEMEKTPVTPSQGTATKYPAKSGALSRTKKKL
Label key: YES means kinase still bound, per cent of control under 20%; NO means kinase still bound, per cent of control of 20% or more.

As a guide, the following entries are already answered.
{"Compound": "COc1cc(C(=O)NC2CCN(C)CC2)ccc1Nc1ncc2c(n1)N(C1CCCC1)CC(C)C(=O)N2C (stereo not drawn)", "Label class": "YES"}
{"Compound": "N=C1NC(=O)/C(=C/c2ccc(-c3cncc4ccccc34)o2)S1", "Label class": "YES"}

Query string: Is 20% strictly greater than the compound's reported kinase still bound, per cent of control? compound: COc1cc(C(=O)NC2CCN(C)CC2)ccc1Nc1ncc2c(n1)N(C1CCCC1)CCC(=O)N2C(C)C
Result string: NO

Query string: Is 20% strictly greater than the compound's reported kinase still bound, per cent of control? compound: CS(=O)(=O)Nc1ccc(-c2cncc(/C=C3\SC(=N)NC3=O)c2)cc1
Result string: YES

Query string: Is 20% strictly greater than the compound's reported kinase still bound, per cent of control? compound: COc1cc(N(C)CCO)ccc1Nc1ncc2c(n1)N(C1CCCC1)CCC(=O)N2C
Result string: YES

Query string: Is 20% strictly greater than the compound's reported kinase still bound, per cent of control? compound: CCOc1cc(N2CCC(O)CC2)ccc1Nc1ncc2c(n1)N(C1CCCC1)CCC(=O)N2C
Result string: NO

Query string: Is 20% strictly greater than the compound's reported kinase still bound, per cent of control? compound: COc1cc(C(=O)NC2CCC(O)CC2)ccc1Nc1ncc2c(n1)N(C1CCCC1)[C@@H]1CCC[C@@H]1C(=O)N2C (stereo partly drawn)
Result string: NO

Query string: Is 20% strictly greater than the compound's reported kinase still bound, per cent of control? compound: COc1cc(N2CCC(O)CC2)ccc1Nc1ncc2c(n1)N(C1CCCC1)CCC(=O)N2C
Result string: YES

---

target: PIP4K2B (human) (UniProt P78356); test: KINOMEscan competition binding; conditions: compound 10.0 µM
Sequence (P78356 whole entry, looked up): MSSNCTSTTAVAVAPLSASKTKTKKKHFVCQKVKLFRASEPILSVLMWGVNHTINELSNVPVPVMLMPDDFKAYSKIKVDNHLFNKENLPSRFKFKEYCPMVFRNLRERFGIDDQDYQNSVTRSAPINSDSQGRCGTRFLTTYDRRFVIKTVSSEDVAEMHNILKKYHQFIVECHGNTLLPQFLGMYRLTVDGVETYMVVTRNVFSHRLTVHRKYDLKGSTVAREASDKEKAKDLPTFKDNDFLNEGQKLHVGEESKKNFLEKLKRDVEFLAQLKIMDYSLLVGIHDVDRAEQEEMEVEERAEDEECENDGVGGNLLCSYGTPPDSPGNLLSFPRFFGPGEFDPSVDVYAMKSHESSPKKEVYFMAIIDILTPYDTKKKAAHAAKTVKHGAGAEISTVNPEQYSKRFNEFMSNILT
Recorded metric: kinase still bound, per cent of control (%)
Answers are plain numbers, in %.

Consider the reported kinase still bound, per cent of control for these compounds:
{"Smiles": "COc1cc(N2CCC(O)CC2)ccc1Nc1ncc2c(n1)N1CCc3cccc(c31)C(=O)N2C", "Measured result": 100}
{"Smiles": "COc1cc(N2CCN(C)CC2)ccc1Nc1ncc2c(n1)N(C)c1ccccc1N(C)C2=O", "Measured result": 91}
{"Smiles": "CSC1=NC(=O)/C(=C/c2c[nH]c(=O)c(-c3ccc(NS(C)(=O)=O)cc3)c2)S1", "Measured result": 18}

For each of the items listed, what is its kinase still bound, per cent of control?
1. Nc1cccc(-c2cc(/C=C3\SC(=O)NC3=O)c[nH]c2=O)c1
2. N=C1NC(=O)/C(=C/c2c[nH]c(=O)c(-c3ccc(N4CCNCC4)nc3)c2)S1
3. COc1cc(N2CCN(C)CC2)ccc1Nc1ncc2c(n1)Nc1ccccc1NC2=O
4. N=C1NC(=O)/C(=C/c2ccc(-c3csc4ccccc34)o2)S1

Result string:
[6.6, 8.4, 74, 26]

For each of the items listed, what is its kinase still bound, per cent of control?
1. CN1C(=O)c2ccccc2N(C)c2nc(NS(=O)(=O)c3ccc(N)cc3)ncc21
2. CN1CCN(c2ccc(C(=O)Nc3ncc4c(n3)N(C)c3ccccc3C(=O)N4C)cc2)CC1
3. O=C1NC(=O)/C(=C/c2c[nH]c(=O)c(-c3ccc(N4CCNCC4)nc3)c2)S1

Result string:
[100, 100, 1.1]

Data origin, for the record: the kinase profiling compilation of Christmann-Franck et al. (2016)
